# EXPERIMENTAL_TARGET: human glucagon receptor (GCGR), expressed on CHO-K1 cells (human, UniProt P47871 26-477)
# Sequence (P47871 26-477): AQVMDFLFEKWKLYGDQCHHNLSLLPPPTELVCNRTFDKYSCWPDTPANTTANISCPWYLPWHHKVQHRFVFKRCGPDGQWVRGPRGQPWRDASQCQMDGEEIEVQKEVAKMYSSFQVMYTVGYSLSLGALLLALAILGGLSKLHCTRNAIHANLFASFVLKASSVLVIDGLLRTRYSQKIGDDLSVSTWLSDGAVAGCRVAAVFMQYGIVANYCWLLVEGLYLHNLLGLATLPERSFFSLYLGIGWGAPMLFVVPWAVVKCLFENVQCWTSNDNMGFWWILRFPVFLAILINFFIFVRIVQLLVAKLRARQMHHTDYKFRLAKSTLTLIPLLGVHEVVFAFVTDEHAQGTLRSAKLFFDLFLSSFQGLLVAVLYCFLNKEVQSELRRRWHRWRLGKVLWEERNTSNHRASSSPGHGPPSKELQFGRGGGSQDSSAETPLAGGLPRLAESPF
# TEST_DESCRIPTION: cell-based or functional assay
Numbered stars: 1 amine (or outer) side, 2 acyl side, 3 side chain; on linkers, the order of the positions; unused ones are H or OH. Square brackets hold non-standard residues; d marks the D form. Primed or numbered codes have the meaning given here. Side chains are listed from the residue outwards. Ends that are not written are not given here. * marks the point of attachment. C18 = C18 fatty acid (C16-C22 fatty acids conjugated via γGlu/8-amino-3,6-dioxaoctanoic acid spacers); C18″ = C18 fatty acid moiety (of 2OEG-γGlu-C18, K*); γGlu = O=C(O)[C@H](CCC(=O)[*:2])N[*:1]; AEEA = NCCOCCOCC(=O)O; Aib = CC(C)(N)C(=O)O; MAL = maleimide
Reported Ratio vs. GLP-1R values follow for various binders
Number only, please.

H[Aib]QGTFTSDYSKLLDYMMQRDFVQWLLEGGPSSGAPPPSC([MAL-AEEA-AEEA-γGlu-C18])-NH2 [Peptide No. 5-5A] : 0
Y[Aib]QGTFTSDYSKYLDYMMQRDFVQWLIEGGPSSGAPPPSC-NH2 (not fully specified (residue 40)) [Peptide No. 5-2A] : 0

Answer with the recorded Ratio vs. GLP-1R for the binder listed here: Y[Aib]QGTFTSDYSKYLDYMMARDFVQWLIEGGPSSGAPPPSC-NH2 (not fully specified (residue 40)) [Peptide No. 5-1A] 13

Answer with the recorded Ratio vs. GLP-1R for the binder listed here: Y[Aib]QGTFTSDYSK([AEEA-AEEA-γGlu-C18″])YLDYMMQRDFVQWLIEGGPSSGAPPPS-NH2 [Peptide No. 5-2D] 1

Answer with the recorded Ratio vs. GLP-1R for the binder listed here: H[Aib]QGTFTSDYSK([AEEA-AEEA-γGlu-C18″])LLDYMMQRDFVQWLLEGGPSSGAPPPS-NH2 [Peptide No. 5-5D] 1

Answer with the recorded Ratio vs. GLP-1R for the binder listed here: Y[Aib]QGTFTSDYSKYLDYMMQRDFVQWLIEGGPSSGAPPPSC-NH2 [Peptide No. 5-2] 18

Answer with the recorded Ratio vs. GLP-1R for the binder listed here: Y[Aib]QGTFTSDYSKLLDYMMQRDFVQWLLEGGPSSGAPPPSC-NH2 [Peptide No. 5-3] 152

Each recorded value in this set is attributed to patent US20250296960A1.
